- System: Isocitrate dehydrogenase [NADP] cytoplasmic (Homo sapiens), O75874 [R132H]
- Sequence (O75874 whole entry R132H): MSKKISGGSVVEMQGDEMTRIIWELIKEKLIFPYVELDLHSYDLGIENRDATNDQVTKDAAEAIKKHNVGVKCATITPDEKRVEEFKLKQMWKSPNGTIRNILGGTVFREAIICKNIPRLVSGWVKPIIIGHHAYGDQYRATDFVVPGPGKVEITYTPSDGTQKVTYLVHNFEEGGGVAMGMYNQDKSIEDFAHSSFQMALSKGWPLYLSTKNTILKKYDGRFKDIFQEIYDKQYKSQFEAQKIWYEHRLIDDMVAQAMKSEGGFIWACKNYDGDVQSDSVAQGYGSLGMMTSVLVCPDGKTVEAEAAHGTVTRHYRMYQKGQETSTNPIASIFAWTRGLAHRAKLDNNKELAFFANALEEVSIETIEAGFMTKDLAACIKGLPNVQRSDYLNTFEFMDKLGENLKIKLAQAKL
- assayNotes: Inhibition of IDH1 R132H mutant (unknown origin) expressed in human U87 cells assessed as R-2-hydroxyglutarate production at 100 nM after 48 hrs by LC-MS analysis
- Type: cell-based
- Parameters: scale not given: the % may be the effect or the level left
Kindly state Activity for each of the entries shown.
Give just the numeric value; % need not be written.

What Activity value was documented for this molecule, CCc1cccc(CC)c1-n1c(C=C(C)C)c(C(=O)N2CCNC(C)C2)cc(-c2nc(-c3ccc(Cl)cc3)cs2)c1=O (stereo not given) ?
11

Next entry: CCc1cccc(CC)c1-n1c(C=C(C)C)c(C(=O)N2C3CCC2CNC3)cc(-c2nc(-c3ccc(Cl)cc3)cs2)c1=O
32

Next entry: CCc1cccc(CC)c1-n1c(C=C(C)C)c(C(=O)N2CCNCC2)cc(-c2nc(-c3ccc(Cl)cc3)cs2)c1=O
13

Next entry: CCc1ccc(OC)cc1-n1c(C=C(C)C)c(C(=O)N2CCNCC2)cc(-c2nc(-c3ccc(Cl)cc3)cs2)c1=O
40

Next entry: CCc1cccc(CC)c1-n1c(C=C(C)C)c(C(=O)N2CCNC3(CC3)C2)cc(-c2nc(-c3ccc(Cl)cc3)cs2)c1=O
17
